System: SK-MEL-28
MEASUREMENT_PROTOCOL: NCI tumour cell line growth inhibition, 48 h
Activity calls are given as the source filed them. No stated cut-off is given here; in the data, active = GI50 up to about 1.1 µM and inactive = higher.
Here the recorded GI50 is given for each entry.

Example entries and their recorded answers appear below.
{"columns": ["MOLECULE", "VALUE"],
 "data": [
  ["CC(=O)OC(C)(C)[C@H]1O[C@]23O[C@]1(C)C[C@@H](C)[C@@H]2[C@@]1(C)CC[C@@]24C[C@@]25CC[C@H](O[C@@H]2OC[C@@H](O)[C@H](O)[C@H]2O)C(C)(C)[C@@H]5CC[C@H]4[C@]1(C)[C@H]3O", "7.08 µM (inactive)"],
  ["O=C1Oc2ccccc2C1C/C(=N\\Nc1ccccc1)c1ccccc1O (stereo not drawn)", "33.7 µM (inactive)"]
]}

Quick check: GI50 on SK-MEL-28, item `CN(CCCN=C=S)CCCN1c2ccccc2CCc2ccccc21` ?
2.06 µM (inactive)

Quick check: GI50 on SK-MEL-28, item `O=S(=O)(c1ccccc1)n1c2ccc(Br)cc2c2nc3ccccc3nc21` ?
> 100 µM (inactive)

Quick check: GI50 on SK-MEL-28, item `COCOc1ccc(OC)cc1` ?
> 100 µM (inactive)

Quick check: GI50 on SK-MEL-28, item O=C(Nc1ccccc1)c1cc(S(=O)(=O)NC2=Nc3ccc(Cl)cc3C(c3ccccc3)N2)c(SSc2cc(Cl)c(C(=O)Nc3ccccc3)cc2S(=O)(=O)NC2=Nc3ccc(Cl)cc3C(c3ccccc3)N2)cc1Cl (stereo not drawn) ?
> 100 µM (inactive)

Quick check: GI50 on SK-MEL-28, item COC(=O)C1=C(C)NC(=S)NC1c1ccc(N(CCCl)CCCl)cc1Cl (stereo not drawn) ?
29 µM (inactive)

Quick check: GI50 on SK-MEL-28, item COC1OC(CO)C(O)C1N (stereo not drawn) ?
> 100 µM (inactive)

Origin of values: ChEMBL document CHEMBL1201862
